All figures here come from ChEMBL document CHEMBL1201862.

- Test system: OVCAR-4
- Experiment summary: NCI tumour cell line growth inhibition, 48 h
The source made the active and inactive calls. No stated cut-off is given here; in the data, active = GI50 up to about 1.1 µM and inactive = higher.
The reply should name one outcome from 1.0 (active), 0.0 (inactive)

Record request — test call for "N#Cc1ccccc1C(Cl)(Cl)c1cnccn1" 0.0

Identify the outcome logged in this assay for the molecule shown: "c1csc(-c2cc(-c3cccs3)c(-c3cccs3)s2)c1" 0.0

Answer briefly: the call reported for O=C1NC2C(=CC(O)C(O)C2O)c2cc3c(cc21)OCO3 (centres undefined) in this assay. 1.0

In this assay, the call recorded for Cc1ccc(C2[C@H]3C(=O)N(c4ccc(Cc5ccc(N6C(=O)[C@@H]7ON(c8ccccc8)C(c8ccc(C)cc8)[C@@H]7C6=O)cc5)cc4)C(=O)[C@H]3ON2c2ccccc2)cc1 (some centres undefined) was what? 0.0

For "COc1cccc(CCn2c(N)c(C#N)c3ccc([N+](=O)[O-])cc3c2=O)c1" , which call appears in the assay record? 0.0

In this assay, the call recorded for CC(=O)C1(/N=N/c2ccc(S(N)(=O)=O)cc2)CCOC1=O (centres undefined) was what? 0.0

Which outcome was assigned to "CCn1c(SCC(=O)N/N=C/c2ccccc2)nc2ccccc2c1=O" in this test? 0.0

Please share the test call associated with "CC(=O)Nc1ccc(S(=O)(=O)N=S(C)C)cc1" . 0.0

Identify the outcome logged in this assay for the molecule shown: CCOC(=O)C(SCCO)C(C(=O)OCC)n1ccc(=O)[nH]c1=O (centres undefined) 0.0
